Reference source for all entries: patent US5914236A

Property: Ki; scope: individual compounds
# measurement target: PCT-65 receptor (Rattus norvegicus, UniProt P32305)
# Construct: expressed in transfected cells; host or cells: COS-7 cells (transient, calcium phosphate, pSRα-65)
# Sequence (P32305 45-448): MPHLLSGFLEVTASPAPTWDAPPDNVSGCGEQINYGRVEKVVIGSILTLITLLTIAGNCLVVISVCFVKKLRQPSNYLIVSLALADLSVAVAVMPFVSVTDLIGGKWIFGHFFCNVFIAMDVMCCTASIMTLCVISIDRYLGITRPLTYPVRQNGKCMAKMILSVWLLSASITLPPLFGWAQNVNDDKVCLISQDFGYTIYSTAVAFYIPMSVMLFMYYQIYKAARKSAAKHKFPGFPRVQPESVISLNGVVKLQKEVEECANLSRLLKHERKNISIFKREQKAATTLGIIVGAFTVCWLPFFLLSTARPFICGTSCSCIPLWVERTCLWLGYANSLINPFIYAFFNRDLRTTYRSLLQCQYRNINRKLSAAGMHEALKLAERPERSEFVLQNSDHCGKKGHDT
# test protocol: [3H]-5-HT competition binding to PCT-65 receptor in membranes of transfected COS-7 cells
# measurement conditions: competing with [3H]-5-HT (1 nM), COS-7 membranes, 37 °C; geometric mean ± SEM (n=3)

{"compound": "CC[C@@H](CO)NC(=O)[C@@H]1C=C2c3cccc4c3c(cn4C)C[C@H]2N(C)C1 [Methysergide]", "Ki [nM]": 13.4}
{"compound": "CN(C)CCC=C1c2ccccc2CCc2ccccc21 [Amitriptyline]", "Ki [nM]": 92.8}
{"compound": "CN1CCN(C2=Nc3ccccc3Oc3ccc(Cl)cc32)CC1 [Loxapine]", "Ki [nM]": 133}
{"compound": "FC(F)(F)c1cccc(N2CCNCC2)c1 [TFMPP]", "Ki [nM]": 236}
{"compound": "CN1C[C@@H](NS(=O)(=O)N(C)C)C[C@@H]2c3cccc4c3c(cn4C)C[C@H]21 [Mesulergine]", "Ki [nM]": 21.1}
{"compound": "CNS(=O)(=O)Cc1ccc2[nH]cc(CCN(C)C)c2c1 [Sumatriptan]", "Ki [nM]": 251}
{"compound": "NCCc1c[nH]c2ccc(C(N)=O)cc12 [5-Carboxamidotryptamine]", "Ki [nM]": 0.16}
{"compound": "COc1ccccc1N1CCNCC1 [2-MPP]", "Ki [nM]": 125}
{"compound": "Clc1cccc(N2CCNCC2)c1 [mCPP]", "Ki [nM]": 256}
{"compound": "c1ccc2c(N3CCNCC3)cccc2c1 [1(1-Napthyl)piperazine]", "Ki [nM]": 18.4}

* * *

# measurement target: PCT-65 receptor (Rattus norvegicus)
# Construct: expressed in transfected cells; host or cells: COS-7 cells (transient, calcium phosphate, pSRα-65)
# test protocol: Competition binding to PCT-65 receptor (radioligand not specified)
# measurement conditions: expressed in mammalian cells (COS-7)

{"molecule": "CN1C[C@@H](NS(=O)(=O)N(C)C)C[C@@H]2c3cccc4c3c(cn4C)C[C@H]21", "affinity for PCT-65 (in words)": "relatively high affinity"}
{"molecule": "CCN(CC)C(=O)[C@@H]1C=C2c3cccc4[nH]cc(c34)C[C@H]2N(C)C1", "affinity for PCT-65 (in words)": "relatively high affinity"}
{"molecule": "CN(C)CCC=C1c2ccccc2CCc2ccccc21", "affinity for PCT-65 (in words)": "high affinity"}
{"molecule": "CCCN1C[C@H](CSC)C[C@@H]2c3cccc4[nH]cc(c34)C[C@H]21 [Pergolide]", "affinity for PCT-65 (in words)": "relatively high affinity"}
{"molecule": "NCCc1c[nH]c2ccc(O)cc12 [5-Hydroxytryptamine, 5-hydroxytryptamine]", "affinity for PCT-65 (in words)": "high affinity"}

* * *

# measurement target: PCT-65 receptor (Rattus norvegicus, UniProt P32305)
# Construct: expressed in transfected cells; host or cells: COS-7 cells (transient, calcium phosphate, pSRα-65)
# test protocol: [3H]-LSD competition binding to PCT-65 receptor in membranes of transfected COS-7 cells
# measurement conditions: competing with [3H]-LSD (1.5-2.2 nM), COS-7 membranes, pH 7.4, 37 °C, 60 min; geometric mean ± SEM (n=3)

{"compound": "CCCN(CCC)C1CCc2cccc(O)c2C1 (stereo not drawn)", "measurement target": "PCT-65 receptor (Rattus norvegicus, UniProt P32305)", "Ki (nM)": 35.4}
{"compound": "FC(F)(F)c1cccc(N2CCNCC2)c1", "measurement target": "PCT-65 receptor (Rattus norvegicus, UniProt P32305)", "Ki (nM)": 533}
{"compound": "COc1ccc2[nH]cc(CCN(C)C)c2c1", "measurement target": "PCT-65 receptor (Rattus norvegicus, UniProt P32305)", "Ki (nM)": 20.9}
